Molecular target: GDP-bound KRAS wild-type protein (Homo sapiens)
Sequence (P01116 whole entry): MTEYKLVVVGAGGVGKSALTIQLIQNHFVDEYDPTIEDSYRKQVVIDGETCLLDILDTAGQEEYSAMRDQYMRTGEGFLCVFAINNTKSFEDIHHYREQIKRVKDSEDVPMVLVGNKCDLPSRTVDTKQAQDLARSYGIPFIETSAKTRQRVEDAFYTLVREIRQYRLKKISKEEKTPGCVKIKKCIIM
Test: Binding to KRAS by surface plasmon resonance (SPR), Single Cycle Kinetics
Conditions: SPR, Single Cycle Kinetics, 1:1 binding model; GDP-bound KRAS wild-type protein; read-out: KRAS KD
For each record, write down the corresponding log10 Kd.
Would you kindly interpret these values as log10 of Kd expressed in nM?

Item under review: CCO[C@@H]1C[C@H]2C(=O)NC3(CCC3)C(=O)N(C)[C@@H](C(CC)CC)C(=O)N(C)C(C(C)C)CC(=O)N(C)[C@@H](CC3CC3)C(=O)N[C@@H]([C@@H](C)CC)C(=O)N(C)CC(=O)N(C)[C@H]3C/C=C\CCN(C3=O)[C@@H](Cc3ccc(C(F)(F)F)cc3)C(=O)N(C)CC(=O)N[C@@H](CCc3cc(F)c(C(F)(F)F)c(F)c3)C(=O)N2C1 (stereo partly drawn) . Reported log10 Kd?
0.36

Look up log10 Kd: CCO[C@@H]1C[C@H]2C(=O)NC3(CCC3)C(=O)N(C)[C@@H](C3CCCC3)C(=O)N(C)[C@H](C(=O)N3CCOCC3)CC(=O)N(C)[C@@H](CC3CC3)C(=O)N[C@@H]([C@@H](C)CC)C(=O)N(C)CC(=O)N(C)[C@H]3C/C=C\CCN(C3=O)[C@@H](Cc3ccc(C)cc3)C(=O)N(C)CC(=O)N[C@@H](CCc3cc(F)c(C(F)(F)F)c(F)c3)C(=O)N2C1
-0.66

For the compound CCO[C@@H]1C[C@H]2C(=O)NC3(CCC3)C(=O)N(C)[C@@H](C3CCCC3)C(=O)N(C)[C@H](C(=O)N(C)C)CC(=O)N(C)[C@@H](CC3CC3)C(=O)N[C@@H]([C@@H](C)CC)C(=O)N(C)CC(=O)N(C)[C@H]3C/C=C\CCN(C3=O)[C@@H](CC3CCC(F)(F)CC3)C(=O)N(C)CC(=O)N[C@@H](CCc3cc(F)c(C(F)(F)F)c(F)c3)C(=O)N2C1 , what log10 Kd is on record?
-0.92

Return reported log10 Kd; argument: CCO[C@@H]1C[C@H]2C(=O)NC3(CCC3)C(=O)N(C)[C@@H](C3CCCC3)C(=O)N(C)[C@H](C(=O)N(CC)CC)CC(=O)N(C)[C@@H](CC)C(=O)N[C@@H]([C@@H](C)CC)C(=O)N(C)CC(=O)N(C)[C@H]3C/C=C\CCN(C3=O)[C@@H](Cc3ccc(C(F)(F)F)cc3)C(=O)N(C)CC(=O)N[C@@H](CCc3cc(F)c(C(F)(F)F)c(F)c3)C(=O)N2C1
-0.92

Can you look up the measured log10 Kd of CC[C@H](C)[C@@H]1NC(=O)[C@H](CC2CC2)N(C)C(=O)C[C@@H](C(=O)N(C)C)N(C)C(=O)[C@H](C2CCCC2)N(C)C(=O)C2(CCC2)NC(=O)[C@@H]2C[C@@H](C(F)(F)F)CN2C(=O)[C@H](CCc2cc(F)c(C(F)(F)F)c(F)c2)NC(=O)CN(C)C(=O)[C@H](Cc2ccc(C(F)(F)F)cc2)N2CC/C=C\C[C@@H](C2=O)N(C)C(=O)CN(C)C1=O for me?
-1.16

Recorded log10 Kd for CCO[C@@H]1C[C@H]2C(=O)NC3(CCC3)C(=O)N(C)[C@@H](C(CC)CC)C(=O)N(C)[C@H](C(=O)N(C)C)CC(=O)N(C)[C@@H](CC)C(=O)N[C@@H]([C@@H](C)CC)C(=O)N(C)CC(=O)N(C)[C@H]3C/C=C\CCN(C3=O)[C@@H](Cc3ccc(C(F)(F)F)cc3)C(=O)N(C)CC(=O)N[C@@H](CCc3cc(F)c(Cl)c(F)c3)C(=O)N2C1 , please?
-0.11

====

Target: GDP-bound KRAS wild-type protein (Homo sapiens)
Experiment: Binding to KRAS by surface plasmon resonance (SPR), Single Cycle Kinetics
Details: SPR, Single Cycle Kinetics, GDP-bound KRAS wild-type protein; read-out: KRAS KD
Give measured pKd for each item. Keep answers brief.
The scale used: pKd is minus the common logarithm of the concentration in molar units.

Requested field: pKd. Item: CCC(CC)[C@H]1C(=O)N(C)[C@H](C(=O)N(C)C)CC(=O)N(C)[C@@H](COC)C(=O)N[C@@H]([C@@H](C)CC)C(=O)N(C)CC(=O)N(C)[C@H]2C/C=C\CCN(C2=O)[C@@H](CC2CCC(F)(F)CC2)C(=O)N(C)CC(=O)N[C@@H](CCc2ccc(C(F)(F)F)c(Cl)c2)C(=O)N2C[C@@H](C)C[C@H]2C(=O)NC2(CC(C)(C)C2)C(=O)N1C
8.92

Name the recorded pKd for CC[C@H](C)[C@@H]1NC(=O)[C@H](CC)N(C)C(=O)C[C@@H](C(=O)N(C)CC)N(C)C(=O)[C@H](C2CCCC2)N(C)C(=O)C2(CC(C)(C)C2)NC(=O)[C@@H]2C[C@@H](C)CN2C(=O)[C@H](CCc2ccc(C(F)(F)F)c(OC)c2)NC(=O)CN(C)C(=O)[C@H](Cc2ccc(C)cc2)N2CC/C=C\C[C@@H](C2=O)N(C)C(=O)CN(C)C1=O .
9.72

Please give the measured pKd for this compound: CCO[C@@H]1C[C@H]2C(=O)NC3(CCC3)C(=O)N(C)[C@@H](C3CCCC3)C(=O)N(C)[C@H](C(=O)N(C)C)CC(=O)N(C)[C@@H](CC3CC3)C(=O)N[C@@H]([C@@H](C)CC)C(=O)N(C)CC(=O)N(C)[C@H]3C/C=C\CCN(C3=O)[C@@H](Cc3ccc(C(F)(F)F)cc3)C(=O)N(C)CC(=O)N[C@@H](CCc3cc(F)c(C(F)(F)F)c(F)c3)C(=O)N2C1
10.35

Data request, read-out pKd, for CCO[C@H]1CCN2C(=O)[C@H](CCc3cc(F)c(C(F)(F)F)c(F)c3)NC(=O)CN(C)C(=O)[C@H](Cc3ccc(C(F)(F)F)cc3)N3CCCCC[C@@H](C3=O)N(C)C(=O)CN(C)C(=O)[C@H]([C@@H](C)CC)NC(=O)[C@H](CC(C)C)N(C)C(=O)C[C@@H](C(=O)N3CCOCC3)N(C)C(=O)[C@H](C3CCCC3)N(C)C(=O)C3(CCC3)NC(=O)[C@H]12
8.96

Which pKd is listed for CCC[C@H]1C(=O)N[C@@H]([C@@H](C)CC)C(=O)N2CCC[C@H]2C(=O)N(C)[C@H]2C/C=C\CCN(C2=O)[C@@H](Cc2ccc(C(F)(F)F)cc2)C(=O)N(C)CC(=O)N[C@@H](CCc2cc(F)c(C(F)(F)F)c(F)c2)C(=O)N2C[C@H](OCC)C[C@H]2C(=O)N(C)C2(CCC2)C(=O)N(C)[C@@H](C2CCCC2)C(=O)N(C)[C@H](C(=O)N2CCCCC2)CC(=O)N1C ?
8.35

Entry under review: CCO[C@@H]1C[C@H]2C(=O)NC3(CCC3)C(=O)N(C)[C@@H](C3CCCC3)C(=O)N(C)[C@H](C(=O)N(C)C)CC(=O)N(C)[C@@H](Cc3ccccc3)C(=O)N[C@@H]([C@@H](C)CC)C(=O)N(C)CC(=O)N(C)[C@H]3C/C=C\CCN(C3=O)[C@@H](Cc3ccc(C(F)(F)F)cc3)C(=O)N(C)CC(=O)N[C@@H](CCc3cc(F)c(C(F)(F)F)c(F)c3)C(=O)N2C1 . Reported pKd?
10.16

So what's the measured pKd for this one? CCO[C@@H]1C[C@H]2C(=O)NC3(CC(C)(C)C3)C(=O)N(C)[C@@H](C(CC)CC)C(=O)N(C)[C@H](C(=O)N(C)C)CC(=O)N(C)[C@H]3CCCCC/C=C/c4ccc(cc4)C[C@@H](C(=O)N(C)CC(=O)N[C@@H](CCc4ccc(Cl)c(Cl)c4)C(=O)N2C1)N1CC/C=C\C[C@@H](C1=O)N(C)C(=O)CN(C)C(=O)[C@H]([C@@H](C)CC)NC3=O
9.54

Which pKd value is on record for CCO[C@@H]1C[C@H]2C(=O)NC3(CCC3)C(=O)N(C)[C@@H](C3CCCC3)C(=O)N(C)[C@H](C(=O)N3CCOCC3)CC(=O)N(C)[C@@H](CC)C(=O)N[C@@H]([C@@H](C)CC)C(=O)N(C)CC(=O)N(C)[C@H]3CC(C)=CCN(C3=O)[C@@H](Cc3ccc(C(F)(F)F)cc3)C(=O)N(C)CC(=O)N[C@@H](CCc3cc(F)c(C(F)(F)F)c(F)c3)C(=O)N2C1 ?
9.24

Entry CCOC[C@H]1C(=O)N[C@@H]([C@@H](C)CC)C(=O)N(C)CC(=O)N(C)[C@H]2C/C=C\CCN(C2=O)[C@@H](Cc2ccc(C(F)(F)F)cc2)C(=O)N(C)CC(=O)N[C@@H](CCc2ccc(C(F)(F)F)c(OC)c2)C(=O)N2C[C@H](OCC)C[C@H]2C(=O)N(C)C2(CCC2)C(=O)N(C)[C@@H](C(CC)CC)C(=O)N(C)[C@H](C(=O)N(C)C)CC(=O)N1C has what pKd?
9.92

Can you look up the measured pKd of CCO[C@@H]1C[C@H]2C(=O)NC3(CCC3)C(=O)N(C)[C@@H](C3CCCC3)C(=O)N(C)[C@H](C(=O)N3CCOCC3)CC(=O)N(C)[C@@H](Cc3ccc(Cl)c(Cl)c3)C(=O)N[C@@H]([C@@H](C)CC)C(=O)N(C)CC(=O)N(C)[C@H]3CCCCCN(C3=O)[C@@H](Cc3ccc(C(F)(F)F)cc3)C(=O)N(C)CC(=O)N[C@@H](CCc3cc(F)c(C(F)(F)F)c(F)c3)C(=O)N2C1 for me?
8.74

Look up pKd: CC[C@H](C)[C@@H]1NC(=O)[C@H](CC)N(C)C(=O)C[C@@H](C(=O)N(C)C)N(C)C(=O)[C@H](C2CCCC2)N(C)C(=O)C2(CCCC2)N(C)C(=O)[C@@H]2CCCN2C(=O)[C@H](CCc2cc(F)c(C(F)(F)F)c(F)c2)NC(=O)CN(C)C(=O)[C@H](Cc2ccc(C(F)(F)F)cc2)N2CC/C=C\C[C@@H](C2=O)N(C)C(=O)CN(C)C1=O
10.15

Sourced from patent US20240158446A1
